I'd appreciate it if you could supply pIC50 values for the items below.
- tgt: Mycothiol S-conjugate amidase (Mycobacterium tuberculosis (strain ATCC 25618 / H37Rv))
- Sequence (P9WJN1 whole entry): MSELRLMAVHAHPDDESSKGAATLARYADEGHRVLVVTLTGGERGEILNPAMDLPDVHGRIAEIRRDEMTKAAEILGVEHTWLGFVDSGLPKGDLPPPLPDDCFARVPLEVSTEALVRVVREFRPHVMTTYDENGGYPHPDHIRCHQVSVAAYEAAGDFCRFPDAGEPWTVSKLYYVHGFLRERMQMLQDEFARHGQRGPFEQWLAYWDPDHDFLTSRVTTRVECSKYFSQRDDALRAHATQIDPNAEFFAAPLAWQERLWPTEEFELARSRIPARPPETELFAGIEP
- procedure-details: ChEBML_140808
The read-out pIC50 is expressed as -log10 of concentration in moles per litre.

Return pIC50 for the following compound: O=NC(Cc1ccc(O)c(Br)c1)C(=O)NCCSSCCNC(=O)C(Cc1ccc(O)c(Br)c1)N=O (configuration not stated) 5.55

Return pIC50 for the following compound: N=C(N)CCCCNC(=O)C(Cc1cc(Br)c(OCCCN)c(Br)c1)N=O (configuration not stated) 5.55
